Kd for assorted binders
- assayed target: T1, rat sclerostin (rat)
- T1 chain: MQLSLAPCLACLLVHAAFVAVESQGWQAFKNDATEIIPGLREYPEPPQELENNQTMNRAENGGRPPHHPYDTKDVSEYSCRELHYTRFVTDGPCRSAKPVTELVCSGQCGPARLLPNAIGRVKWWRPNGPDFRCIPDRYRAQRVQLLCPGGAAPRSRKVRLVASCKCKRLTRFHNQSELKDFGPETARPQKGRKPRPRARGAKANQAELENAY
- procedure text: SPR, pH 7.4, 37C
quantity name: Kd (pM)

- mabA (antibody, V domains shown) VH: EVQLVQSGAEVKKPGASVKVSCKASGYTFTDYNMHWVRQAPGQGLEWMGEINPNSGGAGYNQKFKGRVTMTTDTSTSTAYMELRSLRSDDTAVYYCARLGYDDIYDDWYFDVWGQGTTVTVSS VL: DIQMTQSPSSLSASVGDRVTITCRASQDISNYLNWYQQKPGKAPKLLIYYTSRLLSGVPSRFSGSGSGTDFTLTISSLQPEDFATYYCQQGDTLPYTFGGGTKVEIK: 0.0938
- mabA_pH2 (antibody, V domains shown) VH: EVQLVQSGAEVKKPGASVKVSCKASGYTFTDYNMHWVRQAPGQGLEWMGEINPNSGHAGYNQKFKGRVTMTTDTSTSTAYMELRSLRSDDTAVYYCARLHYDHIYDDWYFDVWGQGTTVTVSS VL: DIQMTQSPSSLSASVGDRVTITCRASHDISNYLNWYQQKPGKAPKLLIYYTSRLLSGVPSRFSGSGSGTDFTLTISSLQPEDFATYYCQQGDTLPYTFGGGTKVEIK: 31.2
- mabA_pH1 (antibody, V domains shown) VH: EVQLVQSGAEVKKPGASVKVSCKASGYTFTDYNMHWVRQAPGQGLEWMGEINPNSGHAGYNQKFKGRVTMTTDTSTSTAYMELRSLRSDDTAVYYCARLHYDDIYDDWYFDVWGQGTTVTVSS VL: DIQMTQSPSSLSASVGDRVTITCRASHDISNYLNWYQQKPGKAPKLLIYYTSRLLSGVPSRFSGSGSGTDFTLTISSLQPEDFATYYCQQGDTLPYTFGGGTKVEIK: 25.2
- mabA_NpH2 (antibody, V domains shown) VH: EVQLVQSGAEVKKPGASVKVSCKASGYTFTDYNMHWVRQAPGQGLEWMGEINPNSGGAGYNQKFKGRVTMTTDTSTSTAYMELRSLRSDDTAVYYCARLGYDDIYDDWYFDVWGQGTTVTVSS VL: DIQMTQSPSSLSASVGDRVTITCRASQDISNYLNWYQQKPGKAPKLLIYHTSRLLSGVPSRFSGSGSGTDFTLTISSLQPEDFATYYCQQGDTLPYTFGGGTKVEIK: 6.61
- mabA_NpH3 (antibody, V domains shown) VH: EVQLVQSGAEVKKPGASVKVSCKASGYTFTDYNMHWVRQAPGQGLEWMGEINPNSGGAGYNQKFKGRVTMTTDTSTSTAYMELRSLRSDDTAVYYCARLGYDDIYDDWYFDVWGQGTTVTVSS VL: DIQMTQSPSSLSASVGDRVTITCRASQDISNYLNWYQQKPGKAPKLLIYYHSRLLSGVPSRFSGSGSGTDFTLTISSLQPEDFATYYCHQGDTLPYTFGGGTKVEIK: 42.6
- mabA_pH3 (antibody, V domains shown) VH: EVQLVQSGAEVKKPGASVKVSCKASGYTFTDYNMHWVRQAPGQGLEWMGEINPHSGHAGYNQKFKGRVTMTTDTSTSTAYMELRSLRSDDTAVYYCARLHYDDIHDDWYFDVWGQGTTVTVSS VL: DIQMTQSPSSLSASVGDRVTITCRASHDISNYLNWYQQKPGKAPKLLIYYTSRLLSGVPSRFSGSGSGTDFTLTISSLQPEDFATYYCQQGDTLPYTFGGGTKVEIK: 184
- mabA_NpH1 (antibody, V domains shown) VH: EVQLVQSGAEVKKPGASVKVSCKASGYTFTDYNMHWVRQAPGQGLEWMGEINPNSGGAGYNQKFKGRVTMTTDTSTSTAYMELRSLRSDDTAVYYCARLGYDDIYDDWYFHVWGQGTTVTVSS VL: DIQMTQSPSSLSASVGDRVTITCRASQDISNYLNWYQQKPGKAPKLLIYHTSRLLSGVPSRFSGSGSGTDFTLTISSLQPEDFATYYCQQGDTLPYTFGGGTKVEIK: 82.6
